Recorded Bliss excess, one value per entry.
# Test system: CGTH-W-1 (Thyroid Gland Carcinoma);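 further: after 72 h of two-drug dosing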
# Assay Details: Bliss excess, mean over the matrix (fraction); higher = more synergy
Measured Quantity: Bliss excess

{"Compound": "O=C(c1cc(Cc2n[nH]c(=O)c3ccccc23)ccc1F)N1CCN(C(=O)C2CC2)CC1 [Olaparib] + COc1nnc2ccc(N3CCC(c4ccc(OCCN5CCN(C)C(=O)[C@H]5C)cc4)CC3)nn12 [AZD5153] (first compound max 10 µM, 7x7, partner max 1 µM)", "Test Result": -0.0247}
{"Compound": "CN(CCO)CC[C@H](CSc1ccccc1)Nc1ccc(S(=O)(=O)NC(=O)c2ccc(N3CCC([C@@H](O)c4ccccc4-c4ccc(Cl)cc4)CC3)cc2)cc1S(=O)(=O)C(F)(F)F [AZD4320] + C1CN(CCC1(C(=O)N[C@@H](CCO)C2=CC=C(C=C2)Cl)N)C3=NC=NC4=C3C=CN4 [Capivasertib] (first compound max 1 µM, 7x7, partner max 3 µM)", "Test Result": -0.0436}
{"Compound": "Cn1cnc2c(F)c(Nc3ccc(Br)cc3Cl)c(C(=O)NOCCO)cc21 [Selumetinib] + CC(C)n1c(=O)n(C)c2cnc3cc(F)c(-c4ccc(OCCCN5CCCCC5)nc4)cc3c21 [AZD1390] (first compound max 10 µM, 7x7, partner max 0.3 µM)", "Test Result": -0.0388}
{"Compound": "Cc1c2c(nn1C)CSCc1cc(n(C)n1)CSc1cc(c3ccccc3c1)OCCCc1c(C(=O)O)n(C)c3c-2c(Cl)ccc13 [AZD5991] + CN(C)CCCOc1ccc(-c2ccc3ncc4c(c3c2)n(C2CCOCC2)c(=O)n4C)cn1 [AZD0156] (first compound max 1 µM, 7x7, partner max 1 µM)", "Test Result": -0.0151}
{"Compound": "Cc1nc(Nc2ncc(C(=O)Nc3c(C)cccc3Cl)s2)cc(N2CCN(CCO)CC2)n1 [Dasatinib] + CC(=O)Nc1cccc(-n2c(=O)n(C3CC3)c(=O)c3c(Nc4ccc(I)cc4F)n(C)c(=O)c(C)c32)c1 [Trametinib] (first compound max 2 µM, 7x7, partner max 1 µM)", "Test Result": -0.0129}
{"Compound": "Cc1nc(-c2cn3c(n2)-c2ccc(-c4cnn(C(C)(C)C(N)=O)c4)cc2OCC3)n(C(C)C)n1 [Taselisib] + O=C(Nc1ccc2[nH]nc(-c3ccncc3)c2c1)[C@@H]1CCN(CC(=O)N2CCN(c3ccc(-c4ncccn4)cc3)CC2)C1 [SCH772984] (first compound max 10 µM, 7x7, partner max 5 µM)", "Test Result": 0.0884}
{"Compound": "O=C(c1cc(Cc2n[nH]c(=O)c3ccccc23)ccc1F)N1CCN(C(=O)C2CC2)CC1 [Olaparib] + CC1(C)CCC(CN2CCN(c3ccc(C(=O)NS(=O)(=O)c4ccc(NCC5CCOCC5)c([N+](=O)[O-])c4)c(Oc4cnc5[nH]ccc5c4)c3)CC2)=C(c2ccc(Cl)cc2)C1 [Venetoclax] (first compound max 10 µM, 7x7, partner max 1 µM)", "Test Result": -0.0433}

----------
# Test system: EB2 (Burkitt's Lymphoma)
# Assay Details: combination Emax (second highest fraction inhibited in the dose matrix, 72 h); higher = more inhibition; extreme values may be limits of the assay
Binary call on combination Emax: Criterion met from 0.5 upward, Criterion not met beneath that.

{"Molecule": "C[C@@H](c1ccc2nccn2c1)n1nnc2ncc(-c3cnn(C)c3)nc21 [Savolitinib] + CC1(C)CCC(CN2CCN(c3ccc(C(=O)NS(=O)(=O)c4ccc(NCC5CCOCC5)c([N+](=O)[O-])c4)c(Oc4cnc5[nH]ccc5c4)c3)CC2)=C(c2ccc(Cl)cc2)C1 [Venetoclax] (first compound max 1 µM, 7x7, partner max 1 µM)", "Classification": "Criterion not met"}
{"Molecule": "Cc1c2c(nn1C)CSCc1cc(n(C)n1)CSc1cc(c3ccccc3c1)OCCCc1c(C(=O)O)n(C)c3c-2c(Cl)ccc13 [AZD5991] + Cn1cnc2c(F)c(Nc3ccc(Br)cc3Cl)c(C(=O)NOCCO)cc21 [Selumetinib] (first compound max 1 µM, 7x7, partner max 3 µM)", "Classification": "Criterion not met"}
{"Molecule": "N#Cc1cnc(Nc2cc(NC[C@H]3CNCCO3)c(C(F)(F)F)cn2)cn1 [SRA737] + O=c1[nH]cc(F)c(=O)[nH]1 [5-Fluorouracil] (first compound max 10 µM, 7x7, partner max 20 µM)", "Classification": "Criterion met"}
{"Molecule": "Cc1cc2ncnn2cc1Nc1ncc2c(n1)n(C1CCOCC1)c(=O)n2C [AZD7648] + C=CCn1c(=O)c2cnc(Nc3ccc(N4CCN(C)CC4)cc3)nc2n1-c1cccc(C(C)(C)O)n1 [AZD1775] (first compound max 10 µM, partner max 1 µM)", "Classification": "Criterion met"}
{"Molecule": "CCN(CCO)CCCOc1ccc2c(Nc3cc(CC(=O)Nc4cccc(F)c4)[nH]n3)ncnc2c1 [AZD2811] + O=C(c1cc(Cc2n[nH]c(=O)c3ccccc23)ccc1F)N1CCN(C(=O)C2CC2)CC1 [Olaparib] (first compound max 1 µM, 7x7, partner max 10 µM)", "Classification": "Criterion not met"}
{"Molecule": "COc1cccc2c1C(=O)c1c(O)c3c(c(O)c1C2=O)C[C@@](O)(C(=O)CO)C[C@@H]3O[C@H]1C[C@H](N)[C@H](O)[C@H](C)O1 [Doxorubicin] + Cc1cc2ncnn2cc1Nc1ncc2c(n1)n(C1CCOCC1)c(=O)n2C [AZD7648] (first compound max 1 µM, 7x7, partner max 10 µM)", "Classification": "Criterion met"}
{"Molecule": "Cc1c2c(nn1C)CSCc1cc(n(C)n1)CSc1cc(c3ccccc3c1)OCCCc1c(C(=O)O)n(C)c3c-2c(Cl)ccc13 [AZD5991] + CC(=O)O[C@H]1C(=O)[C@@]2(C)[C@H]([C@H](OC(=O)c3ccccc3)[C@]3(O)C[C@H](OC(=O)[C@H](O)[C@@H](NC(=O)c4ccccc4)c4ccccc4)C(C)=C1C3(C)C)[C@]1(OC(C)=O)CO[C@@H]1C[C@@H]2O [Paclitaxel] (first compound max 1 µM, 7x7, partner max 3 µM)", "Classification": "Criterion met"}
{"Molecule": "COc1cccc(OCCCN)c1-c1cc(Nc2cnc(C#N)cn2)n[nH]1 [Prexasertib] + CN(C)CCCOc1ccc(-c2ccc3ncc4c(c3c2)n(C2CCOCC2)c(=O)n4C)cn1 [AZD0156] (first compound max 1 µM, 7x7, partner max 1 µM)", "Classification": "Criterion met"}
{"Molecule": "Cc1cc2ncnn2cc1Nc1ncc2c(n1)n(C1CCOCC1)c(=O)n2C [AZD7648] + COc1cc([C@@H]2c3cc4c(cc3[C@@H](O[C@@H]3O[C@@H]5CO[C@@H](C)O[C@H]5[C@H](O)[C@H]3O)[C@H]3COC(=O)[C@H]23)OCO4)cc(OC)c1O [Etoposide] (first compound max 10 µM, 7x7, partner max 10 µM)", "Classification": "Criterion met"}
{"Molecule": "CC(=O)c1c(C)c2cnc(Nc3ccc(N4CCNCC4)cn3)nc2n(C2CCCC2)c1=O [Palbociclib] + Cc1c2c(nn1C)CSCc1cc(n(C)n1)CSc1cc(c3ccccc3c1)OCCCc1c(C(=O)O)n(C)c3c-2c(Cl)ccc13 [AZD5991] (first compound max 10 µM, 7x7, partner max 1 µM)", "Classification": "Criterion met"}
{"Molecule": "CC(=O)c1c(C)c2cnc(Nc3ccc(N4CCNCC4)cn3)nc2n(C2CCCC2)c1=O [Palbociclib] + CC1(C)CCC(CN2CCN(c3ccc(C(=O)NS(=O)(=O)c4ccc(NCC5CCOCC5)c([N+](=O)[O-])c4)c(Oc4cnc5[nH]ccc5c4)c3)CC2)=C(c2ccc(Cl)cc2)C1 [Venetoclax] (first compound max 10 µM, 7x7, partner max 1 µM)", "Classification": "Criterion not met"}
{"Molecule": "COc1cccc(OCCCN)c1-c1cc(Nc2cnc(C#N)cn2)n[nH]1 [Prexasertib] + CCc1c2c(nc3ccc(O)cc13)-c1cc3c(c(=O)n1C2)COC(=O)[C@]3(O)CC [SN-38] (first compound max 1 µM, 7x7, partner max 0.3 µM)", "Classification": "Criterion met"}

Values from the supplement of paper PMC11061612
